B1: HDV Ribozyme (parent)
chain: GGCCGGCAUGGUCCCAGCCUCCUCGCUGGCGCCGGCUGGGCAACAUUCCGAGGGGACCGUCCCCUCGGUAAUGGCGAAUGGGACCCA

Variants of: B1
Experiment: self-cleavage, relative activity (ratio to wild type); higher = more cleavage; co-transcriptional
Measured self-cleavage determines class: lower range (below 0.3), middle range (0.3 to below 0.8), upper range (0.8 or more)

>  <mutant>
C41G U47G

>  <assigned.class>
middle range

$$$$
>  <mutant>
C26A C58U

>  <assigned.class>
upper range

$$$$
>  <mutant>
G5U C66U

>  <assigned.class>
middle range

$$$$
>  <mutant>
C14A U27C

>  <assigned.class>
middle range

$$$$
>  <mutant>
A16G G52C

>  <assigned.class>
upper range

$$$$
>  <mutant>
C24A A45G

>  <assigned.class>
upper range

$$$$
>  <mutant>
C4U U46C

>  <assigned.class>
middle range

$$$$
>  <mutant>
G2U C19A

>  <assigned.class>
lower range

$$$$
>  <mutant>
G10C U79A

>  <assigned.class>
lower range

$$$$
>  <mutant>
C13G A87G

>  <assigned.class>
lower range

$$$$
>  <mutant>
C15G U46C

>  <assigned.class>
lower range

$$$$
>  <mutant>
G54A C61G

>  <assigned.class>
upper range

$$$$
>  <mutant>
G5A G34U

>  <assigned.class>
lower range

$$$$
>  <mutant>
G40C C75G

>  <assigned.class>
lower range

$$$$
>  <mutant>
G53C G74C

>  <assigned.class>
lower range

$$$$
>  <mutant>
C44U G74U

>  <assigned.class>
middle range

$$$$
>  <mutant>
G59A A70G

>  <assigned.class>
upper range

$$$$
>  <mutant>
C15U G17C

>  <assigned.class>
lower range

$$$$
